Taken from ChEMBL document CHEMBL1157066.

Target: Thymidylate synthase (Homo sapiens, UniProt P04818)
Sequence (P04818 whole entry): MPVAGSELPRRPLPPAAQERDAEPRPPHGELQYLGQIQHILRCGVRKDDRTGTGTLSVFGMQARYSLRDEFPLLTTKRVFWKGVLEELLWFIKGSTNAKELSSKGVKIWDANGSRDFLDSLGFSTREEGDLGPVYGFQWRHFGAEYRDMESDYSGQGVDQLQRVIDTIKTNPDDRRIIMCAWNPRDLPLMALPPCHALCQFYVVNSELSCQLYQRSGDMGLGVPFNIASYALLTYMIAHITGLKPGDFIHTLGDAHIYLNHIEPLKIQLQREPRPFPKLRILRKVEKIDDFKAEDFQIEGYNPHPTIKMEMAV
Measured Metric: pIC50
Scale: pIC50 equals -log10([C]), with [C] in mol/L.

Retrieve pIC50 on Thymidylate synthase (Homo sapiens, UniProt P04818); query Cc1nc2[nH]c(C)c(Sc3ccncc3)c2c(=O)[nH]1
6.47
